// data source = PubChem BioAssay (NCI)

- System: A549 NSCLC
- procedure-summary: NCI tumour cell line growth inhibition, 48 h; in the data active = GI50 below about 0.43 µM; inactive = the rest
Write down the outcome that applies. Available outcomes: Y (active), N (inactive)

# count of solved cases: 5
>>> group_label("Cc1ccc(O)cc1Nc1ccnc2ccc(S(C)(=O)=O)cc12")
"N"
>>> group_label("COC(=O)OC1C(O[C@H]2C[C@H]3[C@@H]4CC=C5C[C@@H](O)CC[C@]5(C)[C@H]4CC[C@]3(C)[C@H]2[C@H](C)C(=O)CCC(C)C)OCC(O)C1OC1OCC(O)C(O)C1OC(=O)c1ccc(OC)cc1 (stereo partly drawn)")
"Y"
>>> group_label("CSC1=Nc2c(c(C)c(C)n2COC(CO)CO)C2=NC(=O)CN12")
"N"
>>> group_label("OC1(c2ccc(Cl)c(C(F)(F)F)c2)CCN(CCCC(c2ccc(F)cc2)c2ccc(F)cc2)CC1")
"N"
>>> group_label("CCNc1nc(O)c(/C=C2\\C=Nc3ncccc32)s1")
"N"

Dear colleague, could you share the recorded outcome for Cc1ccc2c(-c3ccnc(Nc4ccc5c(c4)OCCO5)n3)c(-c3ccc(C(F)(F)F)cc3)nn2n1 when you have a moment?
N

What outcome does the record of this test show for CCN1C(=S)N(CC)C2C1NC(=S)N2/N=C/C=C/c1ccccc1OC (stereo not drawn) ?
N

What classification did O=C1C=C[C@H](O)[C@@]2(CO)O[C@@H]12 end up with in this test?
N

---

- Tested on: 786-0 renal
- procedure-summary: NCI tumour cell line growth inhibition, 48 h
property-measured: TGI (nM)
Express it in nM; write the number only.

>>> endpoint_result("CN(C)CCn1c(=O)c2ccc(NCCCN(C)CCCNc3ccc4c(=O)n(CCN(C)C)c(=O)n5c6ccc(O)cc6c(=O)c3c45)c3c(=O)c4cc(O)ccc4n(c1=O)c23")
1050

Let's switch to this compound now.
Which TGI is listed for CCCCCCN(CCCCCC)C(=S)N/N=C(\C)c1ccccn1 ?
2380

---

- Tested on: MALME-3M melanoma
- procedure-summary: NCI tumour cell line growth inhibition, 48 h
property-measured: GI50

Worked set:
>>> endpoint_result("COc1cc2c(N3CCN(C(=O)Nc4ccc(OC(C)C)cc4)CC3)ncnc2cc1OCCCN1CCCCC1")
"14.3 µM"
>>> endpoint_result("c1ccc(-c2[nH]ncc2-c2ccnc(-c3ccc(OCCn4ccnc4)cc3)c2)nc1")
"12.2 µM"
>>> endpoint_result("O=C(NCCNCCO)c1ccc2c(c1)oc1cc3ccccc3c(=O)n12")
"19.7 µM"

For the compound shown here, CCN=c1sc2c(n1NC(=O)c1cc3ccc1CCc1ccc(cc1)CC3)C(=O)c1ccccc1C2=O , give the reported GI50.
0.524 µM

What value of measured GI50 is listed for OC1(c2ccc(Cl)c(C(F)(F)F)c2)CCN(CCCC(c2ccc(F)cc2)c2ccc(F)cc2)CC1 ?
0.934 µM

---

- System: OVCAR-5 ovarian
- procedure-summary: NCI tumour cell line growth inhibition, 48 h; in the data active = GI50 below about 0.43 µM; inactive = the rest
Valid outcomes are listed here; reply with one: active, inactive

Solved cases below.
>>> group_label("O=C(Nc1cccc(-n2cc(-c3ccncc3)c(-c3cc(O)cc(Cl)c3)n2)c1)c1ccc(N2CCOCC2)c(C(F)(F)F)c1")
"inactive"
>>> group_label("c1ccc(-c2c(-c3ccccc3)[n+](Cc3ccc4ccccc4c3)c(-c3ccc(-c4nc5ccccc5s4)cc3)n2Cc2ccc3ccccc3c2)cc1")
"active"
>>> group_label("Cc1c2ccnc(C(N)=O)c2c(C)c2c1[nH]c1ccccc12")
"inactive"
>>> group_label("CCCCCCCCCCCC[N+]1(CCCCCCCCCCCC)CCCC(C)C1 (stereo not given)")
"inactive"

Hi, do you know how COc1cc2c(N3CCN(C(=O)Nc4ccc(OC(C)C)cc4)CC3)ncnc2cc1OCCCN1CCCCC1 came out in this test?
inactive

Name the outcome recorded for CCN=c1sc2c(n1NC(=O)c1cc3ccc1CCc1ccc(cc1)CC3)C(=O)c1ccccc1C2=O in the assay.
inactive

How did this test come out for COc1cc2nc(-c3ccc(Cl)cc3)cc(OCCCN3CCOCC3)c2cc1OC ?
inactive

In this assay, the call recorded for CCCCCOc1ccc(/C=N/Nc2cc(C)nc3ccc(Cl)cc23)cc1 was what?
inactive

Entry COc1cc2c(cc1Nc1nc(N3CCc4ccccc43)c3cc[nH]c3n1)N(C(=O)CN(C)C)CC2 : call = ?
inactive

What did this assay record as the result for COC1N(C2CC(O)C(CO)O2)C(=O)NC(=O)C1(F)Br (stereo not given) ?
inactive
